Reference source for all entries: PubChem BioAssay

- methodSummary: small-molecule binders of probe aLefty1, primary screen, biochemical, small-molecule microarray, 635/667 nm fluorescence (AID 1153);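 note: score merges spot fluorescence with signal-to-noise ratio from the scanned slide images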
- testConditions: higher = more signal
# composite z-score per entry
API note: the answer field is a bare number with no unit suffix.

structureAsSmiles: C=C(COC)/C(=C/C[C@H](OC(C)=O)c1cccc(OCCO)c1)c1cnc2ccccc2c1
measuredValue: 0.0999

IN: Provide one value: measured composite z-score of Cc1nc2cc(Br)ccc2c(=O)n1Cc1cccc(O)c1
OUT: -0.216

IN: Provide one value: measured composite z-score of C=CCNC(=O)[C@H]1[C@@H]2C(=O)O[C@@H](c3ccccc3)[C@@H](c3ccccc3)N2[C@@H](c2ccc(OCCO)cc2)[C@]12C(=O)N(C(=O)OCCOC)c1ccc(C#Cc3ccc(OC)cc3)cc12
OUT: 0.323

IN: Provide one value: measured composite z-score of COCCOC(=O)N1C(=O)[C@@]2(c3ccccc31)[C@H](c1ccccc1OCCO)N1[C@H](c3ccccc3)[C@H](c3ccccc3)OC(=O)[C@H]1[C@@H]2C(N)=O
OUT: 0.221

IN: Provide one value: measured composite z-score of C=CCN1C(=O)[C@]2(O[C@H](CCO)[C@@H]([Si](C)(C)c3ccc(OC)cc3)[C@@H]2C)c2cc(N3C(=O)COc4ccccc43)ccc21
OUT: 0.142

IN: Provide one value: measured composite z-score of C=C(/C(=C/C[C@@H](OC(C)=O)c1ccc(OCCO)cc1)c1cc(C(=O)OC)ccc1OC)C(C)C
OUT: 0.0794

IN: Provide one value: measured composite z-score of COCC(=C=CC[C@@H](O)c1ccc(OCCO)cc1)CCO
OUT: 0.0391

IN: Provide one value: measured composite z-score of CN(C)C(=O)[C@@]1(CCC(=O)OC(C)(C)C)N=C(c2ccc(OCCCO)cc2)O[C@H]1c1ccccc1CN=[N+]=[N-]
OUT: 0.121
